- Subject Of Test: T1, monkey LAG-3 on cells (HEK293-cLAG-3 stable cell line) (monkey, UniProt P18627 24-525 (human entry))
- T1 construct: Full-length monkey (Chinese monkey) LAG-3 gene expressed on HEK293 cells
- T1 chain: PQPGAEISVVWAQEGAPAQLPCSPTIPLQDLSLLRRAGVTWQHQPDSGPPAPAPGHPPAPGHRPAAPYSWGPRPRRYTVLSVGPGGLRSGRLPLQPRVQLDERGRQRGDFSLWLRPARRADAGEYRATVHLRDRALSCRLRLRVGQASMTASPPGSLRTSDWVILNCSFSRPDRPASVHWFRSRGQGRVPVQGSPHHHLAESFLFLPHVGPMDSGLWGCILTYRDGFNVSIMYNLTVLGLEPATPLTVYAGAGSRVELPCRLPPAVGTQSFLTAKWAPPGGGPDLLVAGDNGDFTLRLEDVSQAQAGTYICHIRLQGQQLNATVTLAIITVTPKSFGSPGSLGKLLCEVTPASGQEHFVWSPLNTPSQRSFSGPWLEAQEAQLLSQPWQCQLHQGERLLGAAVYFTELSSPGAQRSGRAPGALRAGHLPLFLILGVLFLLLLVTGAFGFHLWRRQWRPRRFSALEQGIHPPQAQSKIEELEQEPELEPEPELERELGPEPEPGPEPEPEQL
- Assay Overview: FACS, HEK293-cLAG-3, antibody 0.000 nM
- Experimental: The pIRES plasmid with the monkey-derived full-length gene was transfected into the HEK293 cell line to construct a HEK293 stable cell line containing monkey LAG-3 (herein referred to as HEK293-cLAG-3 stable cell line). […] After counted, the cells were diluted with HBSS to 1-2×10⁶ cells per ml, added with 1% goat serum blocking solution, incubated on ice for 20-30 minutes, and then washed with HBSS for 2 times by centrifugation. […]
# if value of Mean fluorescence intensity reaches 3, tag yes (1); if it stays below, tag no (0)

Binder	Label Class
409B11E12 mouse-human chimeric antibody (antibody, V domains shown, also called mAb104-409B11E12) VH: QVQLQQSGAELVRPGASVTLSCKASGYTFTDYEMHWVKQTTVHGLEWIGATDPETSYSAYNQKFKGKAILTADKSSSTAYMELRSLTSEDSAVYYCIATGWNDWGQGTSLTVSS VL: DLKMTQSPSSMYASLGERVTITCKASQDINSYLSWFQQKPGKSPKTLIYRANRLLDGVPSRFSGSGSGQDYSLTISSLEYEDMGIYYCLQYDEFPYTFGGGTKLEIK	no (0)
105F1E10 mouse-human chimeric antibody (antibody, V domains shown, also called mAb009-105F1E10) VH: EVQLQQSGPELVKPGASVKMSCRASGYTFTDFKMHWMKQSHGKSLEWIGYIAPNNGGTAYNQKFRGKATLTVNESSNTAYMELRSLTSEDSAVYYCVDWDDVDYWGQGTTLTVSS VL: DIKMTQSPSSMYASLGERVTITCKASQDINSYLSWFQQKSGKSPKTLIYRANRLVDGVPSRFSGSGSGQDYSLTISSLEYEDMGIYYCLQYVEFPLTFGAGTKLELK	no (0)
405B8H3 mouse-human chimeric antibody (antibody, V domains shown, also called mAb103-405B8H3) VH: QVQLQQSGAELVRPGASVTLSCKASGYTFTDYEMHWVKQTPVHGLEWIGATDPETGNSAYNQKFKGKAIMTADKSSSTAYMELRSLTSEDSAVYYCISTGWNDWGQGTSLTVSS VL: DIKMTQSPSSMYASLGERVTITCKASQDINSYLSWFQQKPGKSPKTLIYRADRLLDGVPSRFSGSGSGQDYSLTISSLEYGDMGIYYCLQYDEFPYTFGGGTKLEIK	no (0)
556F6B8 mouse-human chimeric antibody (antibody, V domains shown, also called mAb123-556F6B8; 556F8B8) VH: RVQLKQSGPGLVQPSQSLSITCTVSGFSLIKYGVHWVRQSPGEGLEWLGVIWRGGITDYNAAFMSRLSITKDNSKSQVFFKMNSLQADDTAIYYCAKWDGPLAMDYWGQGTSVTVSS VL: DIVMTQSHKFLSTSVGDRVSITCKASQDVGTTVAWYQQKPGQSPKLLIYWASTRHTGVPDRFTGSGSGTDFTLTISNVQSEDLADYFCQQYSSYPYTFGGGTKLEIK	yes (1)
